Where these numbers come from: ChEMBL document CHEMBL1121639

The following molecules are shown together with reported ED50 values.
Test system: Mus musculus
Assay: Analgesic agonist activity in acetic acid induced mouse writhing assay, subcutaneous administration
Format: functional
Conditions: sc

In: Would you mind telling me what ED50 value was observed for COc1ccc2c3c1O[C@H]1C(=O)C(C)(C)[C@H](C)C4[C@@H](C2)N(CC2CC2)CC[C@@]341 (stereo partly drawn) ?
Out: > 26 µmol/kg

In: Would you mind telling me what ED50 value was observed for C[C@@H]1C2[C@H]3Cc4ccc(O)c5c4[C@@]2(CCN3CC2CCC2)[C@@H](O5)C(=O)C1(C)C (stereo partly drawn) ?
Out: > 25 µmol/kg

In: Would you mind telling me what ED50 value was observed for COc1ccc2c3c1O[C@H]1[C@H](O)C(CO)(CO)[C@H](C)C4[C@@H](C2)N(C)CC[C@@]341 (stereo partly drawn) ?
Out: > 26 µmol/kg
